Please go through the items and note down their IC50.
- TEST SYSTEM: human recombinant Monoacylglycerol Lipase (Homo sapiens, UniProt Q99685)
- Sequence (Q99685 whole entry): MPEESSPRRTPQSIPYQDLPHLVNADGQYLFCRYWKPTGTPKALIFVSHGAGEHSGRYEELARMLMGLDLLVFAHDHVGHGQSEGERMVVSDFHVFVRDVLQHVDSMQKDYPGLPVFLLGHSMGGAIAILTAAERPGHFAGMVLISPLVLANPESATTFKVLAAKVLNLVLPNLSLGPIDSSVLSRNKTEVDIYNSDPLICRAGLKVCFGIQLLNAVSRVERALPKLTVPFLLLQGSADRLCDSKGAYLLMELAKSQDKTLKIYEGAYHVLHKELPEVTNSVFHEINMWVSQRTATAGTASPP
- EXPERIMENT: MAGL inhibition enzymatic assay, fluorogenic substrate 7-HCA, IC50 at T=0 min or after 30 minute incubation (T=30 min)
- Type: biochemical
- ASSAY CONDITIONS: T = 30 min (30 minute incubation); geometric mean of 2-4 determinations unless otherwise indicated; read-out: MAGL (T = 30 min) IC50
Please reply with the bare figure in nM and do not write the unit itself.

Ask | Entry O=C(O[C@H](CO)C(F)(F)F)N1C[C@@H]2[C@H](C1)[C@H]2c1ccn(-c2ccc(F)cc2)n1 [Example 3] has what IC50?
Reply | 3

Ask | If you can, please state the reported IC50 value of CC(c1ccc(F)cc1)N1CCOC2(CCN(C(=O)O[C@H](CO)C(F)(F)F)CC2)C1 (mixture of isomers) [Example 43] .
Reply | 13

Ask | Form field: reported IC50 of CC1N(S(=O)(=O)c2ccc(F)cc2)CCOC12CCN(C(=O)O[C@H](CO)C(F)(F)F)CC2 (single isomer, unassigned) [Example 70]
Reply | 69

Ask | Recorded IC50 of O=C(O[C@H](CO)C(F)(F)F)N1CCC(Oc2ccc(CO)cn2)CC1 [Example 75] , please.
Reply | 79

Ask | Any idea what IC50 was measured for CC(C)Oc1ccc(S(=O)(=O)N2CCOC3(CCN(C(=O)O[C@H](CO)C(F)(F)F)CC3)C2)cc1 [Example 78] ?
Reply | 1

Ask | IC50 lookup needed for O=C(O[C@H](CO)C(F)(F)F)N1CCC2(CC1)CC(c1ccccc1)CO2 (single isomer, unassigned) [Example 95] , thanks.
Reply | 1

Ask | Dear colleague, I am looking for the recorded IC50 of the following molecule: O=C(O[C@H](CO)C(F)(F)F)N1CCC(CNS(=O)(=O)c2ccc(F)cc2)CC1 [Example 47]
Reply | 17

---

- EXPERIMENT: Prodrug in vivo pharmacokinetics in rats after intravenous administration (LC-MS-MS of prodrug and parent)
- ASSAY CONDITIONS: Wistar Hann, rat, in vivo, iv, 1.48 mg/kg, Cmax, Example 9 (parent) in plasma; Wistar Hann rats; IV Example 31 at 1.48 mg/kg; Mean
RESULT TYPE: Cmax (ng/mL)
Numeric only. Scale: ng/mL

Ask | Which measured Cmax value corresponds to O=C(O[C@H](CO)C(F)(F)F)N1CCC2(CC1)C[C@@H](NS(=O)(=O)c1ccccc1)CO2 [Example 9] ?
Reply | 316

---

- TEST SYSTEM: human recombinant Monoacylglycerol Lipase (Homo sapiens)
- EXPERIMENT: MAGL inhibition enzymatic assay, fluorogenic substrate 7-HCA, IC50 at T=0 min or after 30 minute incubation (T=30 min)
- Format: biochemical
- ASSAY CONDITIONS: T = 30 min (30 minute incubation); geometric mean of 2-4 determinations unless otherwise indicated; read-out: MAGL (T = 30 min) IC50
- Description: An equal volume of 7-HCA in assay buffer with 10% DMSO was added either immediately (T=0 min) or after a 30 minute incubation (T=30 min) to initiate the reaction. […] After these dilutions, the final concentration of the test compound ranged from 3 μM to 0.03 nM. […] IC50 values were generated based on a four parameter fit model using ABASE software from IDBS.
pIC50: −log10 of the molar value.
Rule: condition met for pIC50 not less than 8, condition not met for anything less.

Ask | Is pIC50 for O=C(O[C@H](CO)C(F)(F)F)N1CCC(O)(CN(Cc2ccc(F)cc2)C2CCOCC2)CC1 at or above 8?
Reply | condition not met

Ask | Check this compound for pIC50 at or above 8: CN(CC1(O)CCN(C(=O)O[C@H](CO)C(F)(F)F)CC1)S(=O)(=O)c1ccccc1
Reply | condition not met

Ask | Answer whether pIC50 of CCC1CN(S(=O)(=O)c2ccc(F)cc2)CC2(CCN(C(=O)O[C@H](CO)C(F)(F)F)CC2)O1 (some centres unmarked) is greater than or equal to 8.
Reply | condition not met

Ask | # bool: pIC50 of O=C(O[C@H](CO)C(F)(F)F)N1CCC2(CC1)CN(CC1CCCOC1)CCO2 (single isomer, unassigned) [Example 5] >= 8
Reply | condition not met

Ask | Could you tell me if the measured pIC50 of Cn1nccc1-c1cccc(OC2CCN(C(=O)O[C@H](CO)C(F)(F)F)CC2)n1 reaches 8 or more?
Reply | condition not met

Ask | Has O=C(O[C@H](CO)C(F)(F)F)N1CCC2(CC1)CN(S(=O)(=O)c1ccc(F)c(Cl)c1)CCO2 a recorded pIC50 greater than or equal to 8?
Reply | condition met

Ask | Please indicate if the recorded pIC50 for O=C(O[C@H](CO)C(F)(F)F)N1CCC(CN(Cc2ccc(F)cc2)C2CCOCC2)CC1 meets or exceeds 8.
Reply | condition not met

Ask | Entry O=C(O[C@H](CO)C(F)(F)F)N1CCC2(CC1)CN(S(=O)(=O)c1ccccc1F)CCO2 : is its pIC50 no less than 8?
Reply | condition met

Ask | Check this compound for pIC50 at or above 8: O=C(O[C@H](CO)C(F)(F)F)N1CCC(O)(CNS(=O)(=O)c2ccccc2)CC1
Reply | condition not met

Ask | Does pIC50 meet or surpass 8 for CN([C@H]1COC2(CCN(C(=O)O[C@H](CO)C(F)(F)F)CC2)C1)S(=O)(=O)c1nccs1 ?
Reply | condition met

Ask | Confirm if pIC50 reported for the compound O=C(O[C@H](CO)C(F)(F)F)N1CCC2(CC1)CN(S(=O)(=O)N1CCOCC1)CCO2 is 8 or above.
Reply | condition not met

Ask | Identify whether the reported pIC50 of the following compound is 8 or greater: O=C(OC(CO)C(F)(F)F)N1CCC(c2ccn(C3CCOCC3)n2)CC1 (centres unmarked)
Reply | condition not met

Ask | Evaluate O=C(O[C@H](CO)C(F)(F)F)N1CCC2(CC1)CN(S(=O)(=O)CCCN1CCCC1)CCO2 : pIC50 at minimum 8?
Reply | condition not met

Ask | // inclusive: pIC50 at least 8? input: CN(C1COC2(CCN(C(=O)O[C@H](CO)C(F)(F)F)CC2)C1)S(=O)(=O)c1cncnc1 (mixture of isomers)
Reply | condition not met

Ask | Hi team, for O=C(O[C@H](CO)C(F)(F)F)N1CCC2(CC1)CN(Cc1ccc(F)cc1)S(=O)(=O)CO2 , is the recorded pIC50 at or above 8?
Reply | condition not met

Ask | Would you say O=C(O[C@H](CO)C(F)(F)F)N1C[C@@H]2CN(S(=O)(=O)c3ccc(F)c(F)c3)C[C@@H]2C1 shows pIC50 at minimum 8?
Reply | condition not met

Ask | Kindly determine if pIC50 recorded for O=C(O[C@H](CO)C(F)(F)F)N1CCC2(CC1)CC(Nc1ccccn1)CO2 (some centres unmarked) is above or exactly 8.
Reply | condition not met

Ask | Does the reported pIC50 for CN([C@H]1COC2(CCN(C(=O)O[C@H](CO)C(F)(F)F)CC2)C1)S(=O)(=O)c1ccccc1 fall at or above the 8 mark?
Reply | condition met

Ask | Reported pIC50 reaches at least 8 for Cc1ccc(S(=O)(=O)N2CCOC3(CCN(C(=O)O[C@H](CO)C(F)(F)F)CC3)C2)cc1Cl ?
Reply | condition met

---

- EXPERIMENT: Prodrug in vivo pharmacokinetics in rats after intravenous administration (LC-MS-MS of prodrug and parent)
- ASSAY CONDITIONS: Wistar Hann, rat, plasma, iv, 2 mg/kg, Cmax, Example 6 (parent) in plasma; Wistar Hann rats; IV Example 32 at 2 mg/kg; Rat 04
RESULT TYPE: Cmax (ng/mL)
Response body: numeric value in ng/mL, unit text excluded.

Ask | Using the record for O=C(O[C@H](CO)C(F)(F)F)N1CCC2(CC1)CN(S(=O)(=O)c1ccc(F)cc1)CCO2 , report its Cmax.
Reply | 384

---

- TEST SYSTEM: human recombinant Monoacylglycerol Lipase (Homo sapiens, UniProt Q99685)
- EXPERIMENT: MAGL inhibition enzymatic assay, fluorogenic substrate 7-HCA, IC50 at T=0 min or after 30 minute incubation (T=30 min)
- Format: biochemical
- ASSAY CONDITIONS: T = 0 min (substrate added immediately); geometric mean of 2-4 determinations unless otherwise indicated; read-out: MAGL (T = 0 min) IC50
Could you please report measured pIC50 for the items listed next?
Note on pIC50: it is the negative log10 of concentration, concentration in mol/L.

Ask | Quick check: pIC50 of O=C(O[C@H](CO)C(F)(F)F)N1CCC(O)(CNS(=O)(=O)c2ccccc2)CC1 [Example 16] ?
Reply | 5.74

Ask | I am curious: what pIC50 value has been reported for CN([C@H]1COC2(CCN(C(=O)O[C@H](CO)C(F)(F)F)CC2)C1)S(=O)(=O)c1nccs1 [Example 136] ?
Reply | 7.28

Ask | Any idea what its pIC50 is? The molecule is O=C(O[C@H](CO)C(F)(F)F)N1CCC2(CC1)CCN(C(=O)c1nccs1)C2 [Example 125]
Reply | 7.19

Ask | Recorded pIC50 of O=C(O[C@H](CO)C(F)(F)F)N1CCC2(CC1)CN(S(=O)(=O)c1cccc(F)c1)CCO2 [Example 11] , please.
Reply | 7.85

Ask | # pIC50 lookup, item O=C(O[C@H](CO)C(F)(F)F)N1CCC2(CC1)CN(S(=O)(=O)c1ccc(F)cc1)CCO2 [Example 6]
Reply | 7.08

Ask | Reported pIC50, molecule CN(C1COC2(CCN(C(=O)O[C@H](CO)C(F)(F)F)CC2)C1)S(=O)(=O)C1CCCC1 (mixture of isomers) [Example 112] : ____
Reply | 7.19

Ask | GET /values?readout=pIC50&item= O=C(O[C@H](CO)C(F)(F)F)N1CCC2(CC1)CN(S(=O)(=O)N1CCOCC1)CCO2 [Example 22]
Reply | 5.58

Entry source: patent US10723711B2
